The reported numbers originate from patent US7563781B2.

- assayedSystem: CAK complex (human Cdk7, human Cyclin H, MAT-1) (Homo sapiens)
- Construct: made in house; host or cells: SF-900 insect cells co-infected with Flag-Cdk7 and Bab-Cyclin H baculoviruses
- Sequence (P50613 with tags, fused parts or gaps): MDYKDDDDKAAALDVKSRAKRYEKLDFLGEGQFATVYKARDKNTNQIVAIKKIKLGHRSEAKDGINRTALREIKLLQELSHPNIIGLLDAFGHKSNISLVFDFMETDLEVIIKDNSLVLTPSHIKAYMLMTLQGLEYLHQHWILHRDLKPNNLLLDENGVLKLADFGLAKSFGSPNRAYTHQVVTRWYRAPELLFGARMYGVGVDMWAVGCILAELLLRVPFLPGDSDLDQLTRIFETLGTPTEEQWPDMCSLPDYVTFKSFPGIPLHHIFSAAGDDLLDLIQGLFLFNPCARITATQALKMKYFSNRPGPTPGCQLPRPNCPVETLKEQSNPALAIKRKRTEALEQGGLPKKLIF
- Sequence (as listed by the source partner): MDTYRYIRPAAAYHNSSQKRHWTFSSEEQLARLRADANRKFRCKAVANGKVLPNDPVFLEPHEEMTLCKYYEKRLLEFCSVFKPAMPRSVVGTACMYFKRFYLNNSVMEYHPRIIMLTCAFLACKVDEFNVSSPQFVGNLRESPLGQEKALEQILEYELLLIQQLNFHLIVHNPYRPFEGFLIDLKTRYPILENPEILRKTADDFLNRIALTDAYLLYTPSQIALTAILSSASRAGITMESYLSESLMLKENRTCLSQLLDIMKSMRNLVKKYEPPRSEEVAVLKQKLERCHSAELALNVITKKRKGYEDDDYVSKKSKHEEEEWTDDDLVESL
- assayDetails: in vitro time-resolved-fluorescence assay for the CAK kinase activity
- Type: biochemical
- appliedConditions: compound 20 uM; read-out: CAK % inhib; 20 uM
endpointName: inhibition at 20 µM (%)

1. c1cc(Nc2ncc3nnn(C4CCc5ccccc54)c3n2)cc(-c2nnn[nH]2)c1 (stereo not shown): -0.99
2. CNC(=O)c1cccc(Nc2ncc3nnn(-c4ccc5c(c4)CCC5)c3n2)c1: 21.4
3. CN1CCN(CCCNC(=O)c2cccc(Nc3ncc4nnn(-c5ccc6c(c5)CCC6)c4n3)c2)CC1: 99.7
4. O=C(NCCCN1CCCC1=O)c1cccc(Nc2ncc3nnn(-c4ccc5c(c4)CCC5)c3n2)c1: 17.9
5. NS(=O)(=O)c1cccc(Nc2ncc3nnn(-c4cccc(S(N)(=O)=O)c4)c3n2)c1: 51.3
6. CN1CCN(CCCNC(=O)c2ccc(Nc3ncc4nnn(-c5ccc6c(c5)CCC6)c4n3)cc2)CC1: 89
7. CN(CCCOc1ccc(Nc2ncc3nnn(-c4ccc5c(c4)CCC5)c3n2)cc1)CC(=O)O: 97.6
8. OC1CCN(CCCOc2ccc(Nc3ncc4nnn(-c5ccc6c(c5)CCC6)c4n3)cc2)C1 (stereo not shown): 101
9. CN(C1CCCCC1)S(=O)(=O)c1ccccc1Nc1ncc2nnn(-c3ccc(N4CCN(Cc5ccccc5)CC4)cc3)c2n1: -6.2
10. OCCCOc1ccc(Nc2ncc3nnn(-c4ccc5c(c4)CCC5)c3n2)cc1: 5.06
11. CN(Cc1ccccc1-n1nnc2cnc(Nc3ccc4c(c3)CCC4)nc21)C1CCCCC1: 12.5
12. O=C(NCCCn1ccnc1)c1cccc(Nc2ncc3nnn(-c4ccc5c(c4)CCC5)c3n2)c1: 86.6
13. CN(C)CC(O)COc1ccc(Nc2ncc3nnn(-c4ccc(F)c(F)c4)c3n2)cc1 (stereo not shown): 56
14. CN(C)CC(O)COc1ccc(Nc2ncc3nnn(-c4ccc5c(c4)CCC5)c3n2)cc1 (stereo not shown): 102
15. CCN(CC)CCNC(=O)c1ccc(Nc2ncc3nnn(-c4ccc(C5CCCCC5)cc4)c3n2)cc1: 5.45
16. CN(Cc1ccccc1Nc1ncc2nnn(-c3ccc4c(c3)CCC4)c2n1)C1CCCCC1: 20.7

---

- assayedSystem: Focal Adhesion Kinase (full-length Flag-tagged human FAK) (Homo sapiens)
- Construct: a purified recombinant full-length Flag-tagged human FAK protein; Flag; made in house; host or cells: baculovirus infected insect cells
- Sequence (Q05397 whole entry): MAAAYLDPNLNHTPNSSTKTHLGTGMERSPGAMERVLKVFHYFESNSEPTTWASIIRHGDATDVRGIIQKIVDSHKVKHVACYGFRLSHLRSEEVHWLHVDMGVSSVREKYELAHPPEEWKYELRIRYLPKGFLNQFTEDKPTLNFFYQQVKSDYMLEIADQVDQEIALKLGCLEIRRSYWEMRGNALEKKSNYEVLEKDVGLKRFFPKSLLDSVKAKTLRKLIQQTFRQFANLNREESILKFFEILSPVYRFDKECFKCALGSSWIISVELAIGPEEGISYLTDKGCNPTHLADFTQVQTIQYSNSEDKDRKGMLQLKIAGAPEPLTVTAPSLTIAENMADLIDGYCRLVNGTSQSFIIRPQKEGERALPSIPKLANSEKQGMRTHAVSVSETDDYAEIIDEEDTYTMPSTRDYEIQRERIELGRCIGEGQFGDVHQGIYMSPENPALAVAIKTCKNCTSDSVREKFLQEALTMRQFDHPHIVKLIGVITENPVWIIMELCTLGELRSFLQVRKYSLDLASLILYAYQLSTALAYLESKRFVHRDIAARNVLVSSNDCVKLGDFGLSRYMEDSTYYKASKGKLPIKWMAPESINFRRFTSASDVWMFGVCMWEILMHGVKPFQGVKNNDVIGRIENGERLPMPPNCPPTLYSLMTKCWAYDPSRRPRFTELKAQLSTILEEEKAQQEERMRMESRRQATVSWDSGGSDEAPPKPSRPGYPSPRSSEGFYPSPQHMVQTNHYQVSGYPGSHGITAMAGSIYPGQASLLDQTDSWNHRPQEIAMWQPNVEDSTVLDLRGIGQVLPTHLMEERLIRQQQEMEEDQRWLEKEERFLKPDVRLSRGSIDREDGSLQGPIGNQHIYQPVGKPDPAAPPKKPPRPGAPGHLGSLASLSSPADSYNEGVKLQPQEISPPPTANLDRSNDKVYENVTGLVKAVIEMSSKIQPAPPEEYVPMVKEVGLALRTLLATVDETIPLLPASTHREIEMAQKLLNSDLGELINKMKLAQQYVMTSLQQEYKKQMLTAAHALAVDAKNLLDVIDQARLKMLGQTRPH
- assayDetails: in vitro FAK ELISA kinase assay
- Assay type: biochemical
- appliedConditions: compound 10 uM; ATP 2 uM; read-out: FAK % Inhib ave: 10 uM
Label criterion met when inhibition at 10 µM is at or above 20%; anything below gets criterion not met.

1. O=C(NCCN1CCOCC1)c1cccc(Nc2ncc3nnn(-c4ccc5c(c4)CCC5)c3n2)c1 [Compound 73]: criterion met
2. CN(Cc1ccccc1-n1nnc2cnc(Nc3ccc4c(c3)CCC4)nc21)C1CCCCC1 [Compound 20]: criterion not met
3. CN(C)CC(O)COc1ccc(Nc2ncc3nnn(C4CCCC(C(=O)O)C4)c3n2)cc1 (stereo not drawn) [Compound 31]: criterion met
4. CC(C)(C)OC(=O)N1CCC(CNc2ncc3nnn(-c4ccc5c(c4)CCC5)c3n2)CC1 [Compound 6]: criterion met
5. CN1CCN(CCCNC(=O)c2ccc(Nc3ncc4nnn(-c5ccc6c(c5)CCC6)c4n3)cc2)CC1 [Compound 78]: criterion met
6. CN(C)CC(O)COc1ccc(Nc2ncc3nnn(-c4ccc5ncccc5c4)c3n2)cc1 (stereo not drawn) [Compound 13]: criterion met
7. CCCCNS(=O)(=O)c1ccc(OC)c(-n2nnc3cnc(Nc4ccc(C(=O)NCCN(CC)CC)cc4)nc32)c1 [Compound 86]: criterion met
8. CCCCCOc1ccc(Nc2ncc3nnn(-c4ccc5c(c4)CCC5)c3n2)cc1 [Compound 5]: criterion not met
9. CNC(=O)c1cccc(-n2nnc3cnc(Nc4cccc(-c5ccnc(C)n5)c4)nc32)c1 [Compound 40]: criterion not met

---

- assayedSystem: CAK complex (human Cdk7, human Cyclin H, MAT-1) (Homo sapiens)
- Construct: made in house; host or cells: SF-900 insect cells co-infected with Flag-Cdk7 and Bab-Cyclin H baculoviruses
- assayDetails: in vitro time-resolved-fluorescence assay for the CAK kinase activity
- Type: biochemical
- appliedConditions: compound 20 uM; read-out: CAK % inhib; 20 uM
endpointName: inhibition at 20 µM (%)

1) c1ccc(-c2cccc(Nc3ncc4nnn(-c5ccc6c(c5)CCC6)c4n3)c2)cc1 [Compound 23]: 43.5
2) CN(C)CC(O)COc1ccc(Nc2ncc3nnn(-c4ccc(C5CCCCC5)cc4)c3n2)cc1 (centres unmarked) [Compound 15]: 76
3) CCN(CC)CCNC(=O)c1ccc(Nc2ncc3nnn(C4CCc5ccccc54)c3n2)cc1 (centres unmarked) [Compound 61]: 79.4
4) CN(CCCOc1ccc(Nc2ncc3nnn(-c4ccc5c(c4)CCC5)c3n2)cc1)Cc1ccccc1 [Compound 90]: 47.5
5) COc1cc(-n2nnc3cnc(Nc4ccc5[nH]ncc5c4)nc32)cc(OC)c1OC [Compound 43]: 11.8
6) CCN(CC)CCOC(=O)c1ccc(Nc2ncc3nnn(-c4ccc5c(c4)CCC5)c3n2)cc1 [Compound 32]: 42
7) NS(=O)(=O)c1ccccc1-n1nnc2cnc(Nc3ccc4[nH]ncc4c3)nc21 [Compound 45]: 16.2
8) CCN(CC)CCNC(=O)c1ccc(-n2nnc3cnc(Nc4ccc5c(c4)CCC5)nc32)cc1 [Compound 19]: -63.7
9) CCOC(=O)Cc1ccc(Nc2ncc3nnn(-c4ccc5c(c4)CCC5)c3n2)cc1 [Compound 25]: 21
10) CCOC(=O)N1CCC(n2nnc3cnc(Nc4ccc(C(=O)NCCN(CC)CC)cc4)nc32)CC1 [Compound 64]: 33.9
11) CC(C)(C)OC(=O)N1CCC(CNc2ncc3nnn(-c4ccc5c(c4)CCC5)c3n2)CC1 [Compound 6]: 28.9
12) CCN(CC)CCNC(=O)c1ccc(Nc2ncc3nnn(-c4cc[nH]n4)c3n2)cc1 [Compound 66]: 68.1
13) CN(C)CC(O)COc1ccc(Nc2ncc3nnn(-c4ccccc4)c3n2)cc1 (centres unmarked) [Compound 8]: 92.2
14) c1cc(OCCCN2CCCC2)ccc1Nc1ncc2nnn(-c3ccc4c(c3)CCC4)c2n1 [Compound 92]: 103
15) CCCCNS(=O)(=O)c1cccc(-n2nnc3cnc(Nc4cc(OC)c(OC)c(OC)c4)nc32)c1 [Compound 34]: 19
16) CCCCNS(=O)(=O)c1cccc(-n2nnc3cnc(Nc4ccc(N5CCN(Cc6ccccc6)CC5)cc4)nc32)c1 [Compound 50]: 31.7
17) CN(C)c1ccc(/C=C/c2ccc(Nc3ncc4nnn(-c5ccc6c(c5)CCC6)c4n3)cc2)cc1 [Compound 7]: 38.7
18) CCN(CC)CCNC(=O)c1ccc(Nc2ncc3nnn([C@@H](CO)[C@@H](O)c4ccccc4)c3n2)cc1 [Compound 70]: 21
19) CCOC(=O)c1cccc(Nc2ncc3nnn(-c4ccc5c(c4)CCC5)c3n2)c1 [Compound 26]: 25.9
20) CCCCNS(=O)(=O)c1cccc(Nc2ncc3nnn(Cc4ccccc4)c3n2)c1 [Compound 57]: 34.1
21) CCN(CC)CCNC(=O)c1ccc(Nc2ncc3nnn(-c4cccc(-c5nnn[nH]5)c4)c3n2)cc1 [Compound 62]: 45.3
22) O=C(NCCCN1CCCC1=O)c1ccc(Nc2ncc3nnn(-c4ccc5c(c4)CCC5)c3n2)cc1 [Compound 77]: 72.1
23) c1cc(Nc2ncc3nnn(-c4cccc(-c5cnco5)c4)c3n2)cc(-c2cnco2)c1 [Compound 85]: 9.49
24) CCOC(=O)N1CCC(n2nnc3cnc(Nc4cccc(-c5nnn[nH]5)c4)nc32)CC1 [Compound 63]: 39.3
25) CN(CCO)CCCOc1ccc(Nc2ncc3nnn(-c4ccc5c(c4)CCC5)c3n2)cc1 [Compound 88]: 103
26) CN(Cc1ccccc1Nc1ncc2nnn(-c3ccccc3CN(C)C3CCCCC3)c2n1)C1CCCCC1 [Compound 21]: 23.3
27) CN(C)CC(O)COc1ccc(Nc2ncc3nnn(-c4cccc(C#N)c4)c3n2)cc1 (centres unmarked) [Compound 10]: 11.5
28) CN(C)CC(O)COc1ccc(Nc2ncc3nnn(C4CCC(C(=O)O)CC4)c3n2)cc1 (centres unmarked) [Compound 30]: 38.6
29) CNC(=O)c1cccc(Nc2ncc3nnn(-c4ccc(-c5csnn5)cc4)c3n2)c1 [Compound 39]: -1.5
30) COc1cc(Nc2ncc3nnn(-c4cc(OC)c(OC)c(OC)c4)c3n2)cc(OC)c1OC [Compound 42]: 3.4
31) CCCCCOc1ccc(Nc2ncc3nnn(-c4ccc5c(c4)CCC5)c3n2)cc1 [Compound 5]: 25.9
32) CNC(=O)c1cccc(-n2nnc3cnc(Nc4cccc(-c5ccnc(C)n5)c4)nc32)c1 [Compound 40]: -2.21

---

# inhibition at 10 µM per record follows
- assayedSystem: Focal Adhesion Kinase (full-length Flag-tagged human FAK) (Homo sapiens)
- Construct: a purified recombinant full-length Flag-tagged human FAK protein; Flag; made in house; host or cells: baculovirus infected insect cells
- assayDetails: in vitro FAK ELISA kinase assay
- Format: biochemical
- appliedConditions: compound 10 uM; ATP 2 uM; read-out: FAK % Inhib ave: 10 uM
endpointName: inhibition at 10 µM (%)

1. CCN(CC)CCNC(=O)c1ccc(Nc2ncc3nnn(-c4cccc(-c5nnn[nH]5)c4)c3n2)cc1 [Compound 62]: 66.7
2. CCN(CC)CCNC(=O)c1ccc(-n2nnc3cnc(Nc4ccc5c(c4)CCC5)nc32)cc1 [Compound 19]: 68.8
3. NS(=O)(=O)c1ccccc1Nc1ncc2nnn(-c3ccccc3S(N)(=O)=O)c2n1 [Compound 46]: 29.2
4. NS(=O)(=O)c1cccc(Nc2ncc3nnn(-c4cccc(S(N)(=O)=O)c4)c3n2)c1 [Compound 47]: 63.6
5. O=C(NCCCn1ccnc1)c1cccc(Nc2ncc3nnn(-c4ccc5c(c4)CCC5)c3n2)c1 [Compound 79]: 80
6. CCN(CC)CCNC(=O)c1ccc(Nc2ncc3nnn(C4CCc5ccccc54)c3n2)cc1 (stereo not shown) [Compound 61]: 85.5
7. CCCCNS(=O)(=O)c1cccc(-n2nnc3cnc(Nc4ccc(N5CCN(Cc6ccccc6)CC5)cc4)nc32)c1 [Compound 50]: 48.4
8. CN(C)CC(O)COc1ccc(Nc2ncc3nnn(-c4ccc5ncsc5c4)c3n2)cc1 (stereo not shown) [Compound 14]: 76.8
9. CCN(CC)CCNC(=O)c1ccc(-n2nnc3cnc(Nc4ccc(N5CCN(Cc6ccccc6)CC5)cc4)nc32)cc1 [Compound 53]: 60.5
10. CCOC(=O)N1CCC(n2nnc3cnc(Nc4cccc(-c5nnn[nH]5)c4)nc32)CC1 [Compound 63]: 59.8
11. CN(C)CC(O)COc1ccc(Nc2ncc3nnn(C4CCCCC4)c3n2)cc1 (stereo not shown) [Compound 9]: 23
12. CCN(CC)CCNC(=O)c1ccc(-n2nnc3cnc(Nc4cccc(-c5nnn[nH]5)c4)nc32)cc1 [Compound 65]: 54.7
13. CCN(CC)CCNC(=O)c1ccc(Nc2ncc3nnn(-c4ccc(C5CCCCC5)cc4)c3n2)cc1 [Compound 83]: 28.7
14. O=C(NCCCN1CCCC1)c1cccc(Nc2ncc3nnn(-c4ccc5c(c4)CCC5)c3n2)c1 [Compound 72]: 81.5
15. CCCCNS(=O)(=O)c1cccc(-n2nnc3cnc(Nc4ccc(OCC(O)CN(C)C)cc4)nc32)c1 (stereo not shown) [Compound 35]: 91.6
16. COc1cc(Nc2ncc3nnn(-c4cc(OC)c(OC)c(OC)c4)c3n2)cc(OC)c1OC [Compound 42]: 35.6
